Target: Aldo-keto reductase family 1 member C3 (Homo sapiens)
Sequence (P42330 whole entry): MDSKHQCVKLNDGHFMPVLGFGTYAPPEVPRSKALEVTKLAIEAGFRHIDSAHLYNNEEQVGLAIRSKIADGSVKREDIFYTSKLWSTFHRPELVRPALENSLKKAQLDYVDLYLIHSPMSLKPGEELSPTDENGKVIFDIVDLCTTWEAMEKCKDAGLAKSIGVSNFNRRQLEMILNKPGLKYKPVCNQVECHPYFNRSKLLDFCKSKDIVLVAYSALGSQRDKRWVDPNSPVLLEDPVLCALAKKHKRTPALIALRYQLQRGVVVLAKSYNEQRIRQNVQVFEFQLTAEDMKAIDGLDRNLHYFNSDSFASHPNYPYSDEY
Test: Inhibition of recombinant N-terminal GST-tagged human AKR1C3 expressed in Escherichia coli BL21 (DE) Codon Plus RP cells using S-tetralol as substrate in presence of NADP+ by fluorimetric analysis
value.kind: IC50 (nM)

Answered cases to consult:
>  <molecule.smiles>
Oc1noc2cccc(Nc3cccc(S(F)(F)(F)(F)F)c3)c12

>  <tested.target>
Aldo-keto reductase family 1 member C3 (Homo sapiens)

>  <IC50 (nM)>
310

$$$$
>  <molecule.smiles>
Oc1noc2cccc(Nc3cccc(C(F)(F)F)c3)c12

>  <tested.target>
Aldo-keto reductase family 1 member C3 (Homo sapiens)

>  <IC50 (nM)>
550

$$$$
>  <molecule.smiles>
O=C(Nc1cccc(C(F)(F)F)c1)c1c(O)nnn1Cc1ccc(OC(F)(F)F)cc1

>  <tested.target>
Aldo-keto reductase family 1 member C3 (Homo sapiens)

>  <IC50 (nM)>
190

$$$$
>  <molecule.smiles>
O=[N+]([O-])c1cccc(Nc2cccc3onc(O)c23)c1

>  <tested.target>
Aldo-keto reductase family 1 member C3 (Homo sapiens)

>  <IC50 (nM)>
1410

$$$$

(1) Oc1noc2ccc(Nc3cccc(C(F)(F)F)c3)cc12
(2) COc1ccc(Cn2nnc(O)c2C(=O)Nc2cccc(C(F)(F)F)c2)cc1OC
Query block: Which value of IC50 is greater, the one for 1 or the one for 2 ? Choose, then provide that item's label.
Result block: 1

* * *

Biological target: Prostaglandin G/H synthase 2 (Homo sapiens)
Assay: Inhibition of human COX2 assessed as reduction in PGF2alpha production at 100 uM by ELISA
Conditions: human COX2 enzyme
value.kind: inhibition at 100 µM (%)

>  <molecule.smiles>
O=[N+]([O-])c1cccc(Nc2cccc3onc(O)c23)c1

>  <inhibition at 100 µM, %>
0.37

$$$$
>  <molecule.smiles>
O=C(Nc1cccc(C(F)(F)F)c1)c1c(O)nnn1Cc1ccc(OC(F)(F)F)cc1

>  <inhibition at 100 µM, %>
0

$$$$
>  <molecule.smiles>
Oc1noc2cccc(Nc3cccc(S(F)(F)(F)(F)F)c3)c12

>  <inhibition at 100 µM, %>
4.3

$$$$
>  <molecule.smiles>
COc1ccc(Cn2nnc(O)c2C(=O)Nc2cccc(C(F)(F)F)c2)cc1OC

>  <inhibition at 100 µM, %>
0.87

$$$$

(A) Oc1noc2cccc(Nc3cc(C(F)(F)F)cc(C(F)(F)F)c3)c12
(B) Oc1noc2cccc(Nc3cccc(C(F)(F)F)c3)c12
Query block: I'm curious whether A or B has the smaller inhibition at 100 µM number. Which is it? Choose, then provide that item's label.
Result block: A
(A: 0%, B: 13%)
